This section presents molecules with their documented MIC values.
Tested on: Staphylococcus aureus
procedure.text: Antibacterial activity against methicillin sensitive Staphylococcus aureus NCTC 6571 by microdilution broth method
Assay type: functional

These recorded examples may help you get a feel for the data.
COc1cc2c(cc1OCCCC(=O)Nc1cc(C(=O)Nc3ccc4sc(C(=O)N5CCOCC5)cc4c3)n(C)c1)N=C[C@@H]1CCCN1C2=O
≤ 0.125 µg/mL
COc1cc2c(cc1OCCCC(=O)Nc1cc(C(=O)Nc3ccc(-c4cc(C(=O)N5CCCCC5)n(C)c4)cc3)n(C)c1)N=C[C@@H]1CCCN1C2=O
≤ 0.03 µg/mL
COc1cc2c(cc1OCCCC(=O)Nc1cc(C(=O)Nc3ccc4sc(C(=O)N5CCSCC5)cc4c3)n(C)c1)N=C[C@@H]1CCCN1C2=O
≤ 0.125 µg/mL
CCN(CC)C(=O)c1cc2cc(NC(=O)c3cc(NC(=O)CCCOc4cc5c(cc4OC)C(=O)N4CCC[C@H]4C=N5)cn3C)ccc2o1
≤ 0.125 µg/mL
COc1cc2c(cc1OCCCC(=O)Nc1cc(C(=O)Nc3ccc(-c4cc(C(=O)N5CCOCC5)n(C)c4)cc3)n(C)c1)N=C[C@@H]1CCCN1C2=O
≤ 0.125 µg/mL
COc1cc2c(cc1OCCCC(=O)Nc1cc(C(=O)Nc3ccc(-c4cc(C(=O)N5CCSCC5)n(C)c4)cc3)n(C)c1)N=C[C@@H]1CCCN1C2=O
≤ 0.03 µg/mL
COc1cc2c(cc1OCCCC(=O)Nc1cc(C(=O)Nc3ccc4sc(C(=O)N(C)C)cc4c3)n(C)c1)N=C[C@@H]1CCCN1C2=O
0.03 µg/mL
COC(=O)c1cc(NC(=O)c2cc(NC(=O)CCCOc3cc4c(cc3OC)C(=O)N3CCC[C@H]3C=N4)cn2C)cn1C
0.5 µg/mL
COc1cc2c(cc1OCCCC(=O)Nc1cc(C(=O)Nc3ccc4oc(C(=O)N(C)C)cc4c3)n(C)c1)N=C[C@@H]1CCCN1C2=O
≤ 0.125 µg/mL
COc1cc2c(cc1OCCCC(=O)Nc1cc(C(=O)Nc3ccc(-c4cc(C(=O)N(C)C)n(C)c4)cc3)n(C)c1)N=C[C@@H]1CCCN1C2=O
≤ 0.125 µg/mL

Record COc1cc2c(cc1OCCCC(=O)Nc1cc(C(=O)Nc3ccc4sc(C(=O)N5CCCCC5)cc4c3)n(C)c1)N=C[C@@H]1CCCN1C2=O , field MIC: ≤ 0.125 µg/mL

Record COc1cc2c(cc1OCCCC(=O)Nc1cc(C(=O)Nc3ccc4oc(C(=O)N5CCOCC5)cc4c3)n(C)c1)N=C[C@@H]1CCCN1C2=O , field MIC: ≤ 0.125 µg/mL

Record COc1cc2c(cc1OCCCC(=O)Nc1cc(C(=O)Nc3ccc4oc(C(=O)N5CCCCC5)cc4c3)n(C)c1)N=C[C@@H]1CCCN1C2=O , field MIC: ≤ 0.125 µg/mL

Record COC(=O)c1cc(NC(=O)c2cc3cc(NC(=O)c4cc(NC(=O)CCCOc5cc6c(cc5OC)C(=O)N5CCC[C@H]5C=N6)cn4C)ccc3s2)cn1C , field MIC: ≤ 0.125 µg/mL

Record CCN(CC)C(=O)c1cc(-c2ccc(NC(=O)c3cc(NC(=O)CCCOc4cc5c(cc4OC)C(=O)N4CCC[C@H]4C=N5)cn3C)cc2)cn1C , field MIC: 0.25 to 0.5 µg/mL

* * *

This section presents molecules with their documented selectivity ratio values.
procedure.text: Selectivity ratio of cytotoxicity against human WI38 cells to MIC for vancomycin resistant Enterococcus faecalis NCTC 12201
Type: toxicity, cell-based
Lab note: jot down the number only; don't add units.

COc1cc2c(cc1OCCCC(=O)Nc1cc(C(=O)Nc3ccc4oc(C(=O)N5CCSCC5)cc4c3)n(C)c1)N=C[C@@H]1CCCN1C2=O
100

Record COc1cc2c(cc1OCCCC(=O)Nc1cc(C(=O)Nc3ccc4sc(C(=O)N5CCOCC5)cc4c3)n(C)c1)N=C[C@@H]1CCCN1C2=O , field selectivity ratio: 100

Record COc1cc2c(cc1OCCCC(=O)Nc1cc(C(=O)Nc3ccc4oc(C(=O)N(C)C)cc4c3)n(C)c1)N=C[C@@H]1CCCN1C2=O , field selectivity ratio: 100

The reported numbers originate from ChEMBL document CHEMBL4610120.
